- TARGET_OF_ASSAY: hCA_IX (Homo sapiens, UniProt Q16790)
- Construct: purchased BPS Bioscience, USA
- ASSAY_PROCEDURE: In vitro carbonic anhydrase (IX) inhibition (assay kit, BPS Bioscience)
- Assay type: biochemical
- CONDITION_SUMMARY: mean ± SEM of three independent experiments

{"ITEM_SMILES": "CCOC(=O)c1nn(-c2ccc(S(N)(=O)=O)cc2)/c(=N/N=C(\\C)c2ccc(NC(C)=O)cc2)s1", "DISPLAY_UNIT": "nM", "IC50": 79}
